Hello, the source for this data is PubChem BioAssay (NCI), in case you need it.

Tested on: NCI/ADR-RES ovarian
Assay: NCI-60 one-dose screen, 48 h
Conditions: 10 µM unless noted
About 83,000 compounds went through this panel and 20% of them were active in at least one assay; those are over-represented in the sample as a whole. Active and inactive are the calls of the source. How the source made its calls: active means growth percent below 10; inactive means the rest.
Outcomes: active, inactive

compound=Cc1cc(N=O)cc(C(C)(C)C)c1O assigned_category=inactive
compound=Cc1cc(N(CCCNc2ccnc3cc(Cl)ccc23)Cc2ccco2)nc(N2CCN(C)CC2)n1 assigned_category=inactive
compound=NC(N)=N/N=C/c1ccc(-c2ccc(-c3ccc(Cl)cn3)s2)cc1 assigned_category=inactive
compound="COc1ccc2c(c1)C(Br)=C(CCO)C2c1ccccc1 (centres undefined)" assigned_category=inactive
compound=COC(=O)[C@]12CC[C@@H](C)[C@H](C)[C@@H]1C1=CC[C@@H]3[C@@](C)(CC#N)C4=C(C[C@@]3(C)[C@]1(C)CC2)OC[C@]4(C)C=O assigned_category=active
compound=COc1cccc(-c2nn(-c3ccccc3)cc2-c2ccnc(NCCCNS(=O)(=O)c3ccc(Br)cc3)c2)c1 assigned_category=inactive
compound=CCN1CCN(C(=O)[C@]23CC[C@@H](C)[C@H](C)[C@H]2C2=CC[C@@H]4[C@@]5(C)C/C(=C/c6cccc(OC)c6OC)C(=O)C(C)(C)[C@@H]5CC[C@@]4(C)[C@]2(C)CC3)CC1 assigned_category=inactive
compound=Brc1cnc2[nH]cc(-c3nnc(-c4ccccc4)o3)c2c1 assigned_category=inactive
compound=Cc1cc(Cl)nc(N(CCCNc2ccnc3cc(Cl)ccc23)Cc2ccco2)n1 assigned_category=active
compound=NC(=O)NCC1CCCCC1 assigned_category=inactive
compound="CCC(CC)C(=O)OC(C)COc1ccc(C(C)(C)C)cc1 (centres undefined)" assigned_category=inactive
compound=O=C(/C(=C(\C(=O)c1ccccc1)c1ccccc1)c1ccccc1)c1ccccc1 assigned_category=inactive
compound=C=C1C(=O)O[C@H]2[C@H]1CC/C(COC(=O)N[C@H](Cc1c[nH]c3ccccc13)C(=O)OC)=C\CC[C@@]1(C)O[C@@H]21 assigned_category=inactive
compound=C=C(C)[C@@H]1CC[C@]2(C=NCCCNCCCCNCCCN)CC[C@]3(C)[C@H](CC[C@@H]4[C@@]5(C)CCCNC(C)(C)[C@@H]5CC[C@]43C)[C@@H]12 assigned_category=inactive
compound=COc1ccc2c(c1)C/C(=C\c1cc(-c3cc(OC)c(OC)c(OC)c3)n[nH]1)C2=O assigned_category=inactive
compound=C(=C\c1c[nH]c2ccccc12)/c1ccc2ccccc2n1 assigned_category=inactive
compound=Nc1c(Cl)cc(N=Nc2ccccc2)cc1Cl assigned_category=inactive
compound=O=C1NC(=Nc2ccc(S(=O)(=O)Nc3nccs3)cc2)S/C1=C\c1coc2ccccc2c1=O assigned_category=inactive
compound=COc1ccc(C(=O)c2cc(OC)c(OC)c(OC)c2)cc1/C=C/C(=O)c1cc(OC)c(OC)c(OC)c1 assigned_category=inactive
